Entries and their hCD71:HSA values follow.
Target: T1, recombinant biotinylated CD71 extracellular domain (Sino Biologics) with an N-terminal 6His tag (human, UniProt P02786 89-760, biotinylated (sites not given))
T1 construct: extracellular domain; also called hCD71; huCD71
T1 sequence (P02786 other isoform, or with tags, fused parts or gaps): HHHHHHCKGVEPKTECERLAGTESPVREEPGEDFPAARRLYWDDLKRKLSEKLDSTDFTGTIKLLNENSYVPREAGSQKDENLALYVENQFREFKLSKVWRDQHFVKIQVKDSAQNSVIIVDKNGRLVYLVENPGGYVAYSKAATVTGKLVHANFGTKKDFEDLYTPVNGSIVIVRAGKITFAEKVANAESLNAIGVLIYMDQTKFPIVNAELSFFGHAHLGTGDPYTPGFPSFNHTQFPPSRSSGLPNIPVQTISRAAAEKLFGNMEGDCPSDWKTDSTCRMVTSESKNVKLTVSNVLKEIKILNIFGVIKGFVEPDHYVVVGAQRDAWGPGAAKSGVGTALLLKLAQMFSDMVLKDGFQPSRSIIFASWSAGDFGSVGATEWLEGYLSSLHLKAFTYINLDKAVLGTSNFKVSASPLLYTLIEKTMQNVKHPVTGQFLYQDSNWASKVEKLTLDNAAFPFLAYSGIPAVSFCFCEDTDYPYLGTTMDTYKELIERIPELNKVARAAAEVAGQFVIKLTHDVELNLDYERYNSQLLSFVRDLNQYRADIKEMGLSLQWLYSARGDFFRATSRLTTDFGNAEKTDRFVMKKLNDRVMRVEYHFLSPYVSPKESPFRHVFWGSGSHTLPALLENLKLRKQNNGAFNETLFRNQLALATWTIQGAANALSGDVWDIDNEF
Experiment: screening ELISA, ratio

binder	endpoint	reported-measurement
SEQ ID NO 133 (designed binder, FN3 domain) MLPAPKNLVVSRVTEDSARLSWTAPDAAFDSFPIVYGEAWVTGEAIVLTVPGSERSYDLTGLKPGTEYDVWIEGVKGGELSWPLSAIFTT	hCD71:HSA	855
SEQ ID NO 100 (designed binder, FN3 domain) MLPAPKNLVVSRVTEDSARLSWTAPDAAFDSFWIEYWEVVGFGEAIVLTVPGSERSYDLTGLKPGTEYWVGIYGVKGGNPSVPLSAIFTT	hCD71:HSA	1260
SEQ ID NO 168 (designed binder, FN3 domain) MLPAPKNLVVSRVTEDSARLSWTTPDAAFDSFFIGYLEPYPPGEAIVLTVPGSERSYDLTGLKPGTEYVVSIQGVKGGKPSDPLSAIFTT	hCD71:HSA	1480
SEQ ID NO 95 (designed binder, FN3 domain) MLPAPKNLVVSRVTEDSARLSWTAPDAAFDSFRISYYEWYDLGEAIVLTVPGSERSYDLTGLKPGTEYWVDIAGVKGGYYSYPLSAIFTT	hCD71:HSA	2210
SEQ ID NO 98 (designed binder, FN3 domain) MLPAPKNLVVSRITEDSARLSWTAPDAAFDSFDIPYGEFDTIGEAIVLTVPGSERSYDLTGLKPGTEYDVYIEGVKGGHLSWPLSAIFTT	hCD71:HSA	75

Asked: Would you mind telling me what hCD71:HSA value was observed for SEQ ID NO 269 (designed binder, FN3 domain) MLPAPKNLVVSRVTEDSARLSWTAPDAAFDSFHINYAEVYTKGEAILLTVPGSERSYDLTGLKPGTEYEVYIPGVKGGPFSRPLNAQFTT ?
Given back: 166

Asked: Again, but for SEQ ID NO 126 (designed binder, FN3 domain) MLPAPKNLVVSRVTEDSARLSWTAPDAAFDSFSIDYLELGESGEAIVLTVPGSERSYDLTGLKPGTEYWVYIFGVKGGYPSAPLSAIFTT
Given back: 2570

Asked: Please do the same for SEQ ID NO 148 (designed binder, FN3 domain) MLPAPKNLVVSRVTEDSARLSWTAPDAAFDSFHIEYEEQYSTGEAIYLRVPGSERSYDLTGLKPGTEYHVDIEGVKGGRRSFPLNAFFTT as well.
Given back: 1990

Asked: Also SEQ ID NO 294 (designed binder, FN3 domain) MLPAPKNLVVSRVTEDSARLSWTAPDAAFDSFSIIYSEWNVTGEAIVLTVPGSERSYDLTGLKPGTEYDVWIEGVKGGGMSKPLSAISTT , if possible.
Given back: 174

Asked: Quick one: SEQ ID NO 303 (designed binder, FN3 domain) MLPAPKNLVVSRVTEDSARLSWTAPDAAFDSFFIAYFEFANPGEAIVLTVPGSERSYDLTGLKPGTEYKVVIQGVKGGTPSEPLSAIFTT
Given back: 1330
